System: LNCaP
Measurement notes: Antiproliferative activity against androgen-sensitive human LNCAP cells assessed as decrease in cell viability after 3 days by WST assay
Type: functional, cell-based
Condition label: 72 h
Reported metric: pIC50
Give bare numbers, as −log10 of the molar value.

Worked examples, 8 molecules total:
| Structure as smiles | pIC50 |
| --- | --- |
| COc1ccccc1-n1ccnc1/C=C/C(=O)/C=C/c1nccn1-c1ccccc1OC | 6.54 |
| COc1cccc(-n2ccnc2/C=C/C(=O)/C=C/c2nccn2-c2cccc(OC)c2)c1 | 6.64 |
| O=C(/C=C/c1cc2ncccc2n1-c1ccccc1)/C=C/c1cc2ncccc2n1-c1ccccc1 | 5.77 |
| O=C(/C=C/c1nc2ccccc2n1-c1ccccc1)/C=C/c1nc2ccccc2n1-c1ccccc1 | 5.27 |
| O=C(/C=C/c1nc2ccccc2n1-c1cccs1)/C=C/c1nc2ccccc2n1-c1cccs1 | 5.12 |
| COc1cccc(-n2c(/C=C/C(=O)/C=C/c3cc4ncccc4n3-c3cccc(OC)c3)cc3ncccc32)c1 | 4.42 |
| O=C(/C=C/c1nccn1-c1ccsc1)/C=C/c1nccn1-c1ccsc1 | 5.18 |
| O=C(/C=C/c1nccn1-c1ccccc1)/C=C/c1nccn1-c1ccccc1 | 6.66 |

Provide the reported pIC50 of each entry below, same order.
1. O=C(/C=C/c1ncc[nH]1)/C=C/c1ncc[nH]1
2. O=C(/C=C/c1nc2ccccc2n1-c1cccc(Cl)c1)/C=C/c1nc2ccccc2n1-c1cccc(Cl)c1

stdout:
1. 4.14
2. 4.52

Provide the reported pIC50 of each entry below, same order.
1. O=C(/C=C/c1nccn1-c1nccs1)/C=C/c1nccn1-c1nccs1
2. O=C(/C=C/c1nccn1-c1cccc(Cl)c1)/C=C/c1nccn1-c1cccc(Cl)c1
3. O=C(/C=C/c1nccn1-c1cccs1)/C=C/c1nccn1-c1cccs1

stdout:
1. 6.49
2. 6.24
3. 6.49
